Source: patent US20080139664A1

For each of the compounds below, state its Peak area as % of total area of all glycoforms, 14,419.
Test system: lysozyme
Experiment: ESI-MS of lysozyme glycoforms after incubation with D-ribose
Conditions: lysozyme + D-ribose − 2H2O (14,419 Da); 37° C., 5 days
Field format: number, assumed %, no unit text.

stdin: # return recorded Peak area as % of total area of all glycoforms, 14,419 for entry O=C(O[C@@H]1Cc2c(O)cc(O)cc2O[C@@H]1c1cc(O)c(O)c(O)c1)c1cc(O)c(O)c(O)c1 [(−)-Epigallocatechin gallate]
stdout: 2.6

stdin: Return value of Peak area as % of total area of all glycoforms, 14,419 for input `Cc1cc(N)c2ccccc2c1O` , no commentary.
stdout: 3.3

stdin: Name the recorded Peak area as % of total area of all glycoforms, 14,419 of the compound listed here: Cc1c(C(N)=O)cc([N+](=O)[O-])cc1[N+](=O)[O-] [Dinitolmide]
stdout: 7.4

stdin: Report Peak area as % of total area of all glycoforms, 14,419, nothing else, for this compound: `CN1CCCN=C1/C=C/c1cccc(O)c1`
stdout: 5.6

stdin: Report measured Peak area as % of total area of all glycoforms, 14,419; entry is CCC(NC(C)C)C(O)c1ccc(O)c(O)c1 (centres unmarked)
stdout: 1.6

stdin: Specify reported Peak area as % of total area of all glycoforms, 14,419 for the compound shown: O=c1cc(-c2ccccc2O)oc2cc(O)cc(O)c12 [5,7,2′-Trihydroxyflavone]
stdout: 9.3

stdin: Please look at this compound and report its Peak area as % of total area of all glycoforms, 14,419: `Nc1ncc([N+](=O)[O-])cn1`
stdout: 7.7

stdin: Determine its reported Peak area as % of total area of all glycoforms, 14,419: NC[C@H](O)c1ccc(O)c(O)c1 [D-Norepinephrine]
stdout: 1.9

stdin: Indicate the recorded Peak area as % of total area of all glycoforms, 14,419 value for this compound: O=Cc1ccc(O)c(O)c1 [3,4-Dihydroxybenzaldehyde]
stdout: 3.1

stdin: Query Peak area as % of total area of all glycoforms, 14,419 for CS(=O)(=O)Nc1ccc([N+](=O)[O-])cc1Oc1ccccc1 [Nimesulide]
stdout: 7.6

stdin: State its Peak area as % of total area of all glycoforms, 14,419 for this compound: NC[C@@H](O)c1ccc(O)c(O)c1 [L-Norepinephrine]
stdout: 2.4

stdin: Give reported Peak area as % of total area of all glycoforms, 14,419 value for Oc1cc(O)c2c(c1)O[C@H](c1ccc(O)c(O)c1)[C@@H](O)C2 [(+)-Catechin]
stdout: 4.0

stdin: Give Peak area as % of total area of all glycoforms, 14,419 for the following compound: CCCOC(=O)c1cc(O)c(O)c(O)c1 [Propyl gallate]
stdout: 1.3

stdin: Give me measured Peak area as % of total area of all glycoforms, 14,419, please, for this compound: O=c1cc(-c2ccc(O)c(O)c2)oc2c(O)c(O)ccc12 [7,8,3′,4′-Tetrahydroxyflavone]
stdout: 3.0

stdin: Specify measured Peak area as % of total area of all glycoforms, 14,419 for `CC(C)NC[C@H](O)c1ccc(O)c(O)c1` .
stdout: 2.3

stdin: Using known records, supply Peak area as % of total area of all glycoforms, 14,419 for `O=[N+]([O-])c1ccc(O)c2ncccc12`
stdout: 7.8

stdin: Supply recorded Peak area as % of total area of all glycoforms, 14,419 for `O=c1c(O)cccc2cc(O)c(O)c(O)c12` here.
stdout: 4.1

stdin: Tell me measured Peak area as % of total area of all glycoforms, 14,419 for `O=C1C[C@@H](c2ccc(O)cc2)Oc2cc(O)cc(O)c21` please.
stdout: 7.5

stdin: Tell me Peak area as % of total area of all glycoforms, 14,419 reported for `O=c1cc(-c2ccc(O)c(O)c2)oc2cc(O)cc(O)c12`
stdout: 6.3

stdin: Provide Peak area as % of total area of all glycoforms, 14,419 value for the following compound: `O=[N+]([O-])c1cc([As](=O)(O)O)ccc1O`
stdout: 3.1

====

Tested on: lysozyme
Assay: ESI-MS of lysozyme glycoforms after incubation with D-ribose;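 note: lysozyme incubated with D-ribose, with or without anti-glycation agents, then separated by reversed-phase HPLC and analysed by electrospray mass spectrometry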
Conditions: lysozyme + 2D-ribose − 5H2O (14,533 Da); 37° C., 5 days
quantity: Peak area as % of total area of all glycoforms, 14,533 (%)
Please state the figure in %; there is no need to write the unit.

stdin: Look up and report measured Peak area as % of total area of all glycoforms, 14,533 (lysozyme) for the following compound: O=c1c(O)c(-c2cc(O)c(O)c(O)c2)oc2cc(O)cc(O)c12 [Myricetin]
stdout: 0.0

stdin: State Peak area as % of total area of all glycoforms, 14,533 (lysozyme) of O=c1c(O)cccc2cc(O)c(O)c(O)c12 [Purpurogallin] .
stdout: 0.9

stdin: Recall the reported Peak area as % of total area of all glycoforms, 14,533 of O=[N+]([O-])c1cc([As](=O)(O)O)ccc1O [Roxarsone] on lysozyme and write it down.
stdout: 1.2

stdin: State, for lysozyme, measured Peak area as % of total area of all glycoforms, 14,533 of the compound listed here: Oc1cc(O)c2c(c1)O[C@H](c1ccc(O)c(O)c1)[C@H](O)C2 [(−)-Epicatechin]
stdout: 0.0

stdin: State measured Peak area as % of total area of all glycoforms, 14,533 of the compound O=c1cc(-c2ccc(O)c(O)c2)oc2c(O)c(O)ccc12 [7,8,3′,4′-Tetrahydroxyflavone] with lysozyme.
stdout: 0.0

stdin: State Peak area as % of total area of all glycoforms, 14,533 (lysozyme) of Cc1c(C(N)=O)cc([N+](=O)[O-])cc1[N+](=O)[O-] [Dinitolmide] .
stdout: 2.6

stdin: For lysozyme, give the measured Peak area as % of total area of all glycoforms, 14,533 of the entry NC[C@@H](O)c1ccc(O)c(O)c1 [L-Norepinephrine]
stdout: 0.0

stdin: Given C[C@@](Cc1ccc(O)c(O)c1)(NN)C(=O)O [S(−)-Carbidopa] , report its Peak area as % of total area of all glycoforms, 14,533 on lysozyme.
stdout: 0.8

stdin: # return Peak area as % of total area of all glycoforms, 14,533 of NC(=O)N/N=C/c1ccc([N+](=O)[O-])o1 [Nitrofurazone] (system: lysozyme)
stdout: 2.4

stdin: Report value: Peak area as % of total area of all glycoforms, 14,533, system: lysozyme, compound: O=[N+]([O-])c1ccc(O)c2ncccc12 [Nitroxoline]
stdout: 1.2

stdin: Report Peak area as % of total area of all glycoforms, 14,533 from lysozyme testing of O=C(O)c1cc(/N=N/c2ccc(S(=O)(=O)Nc3ccccn3)cc2)ccc1O [Sulfasalazine]
stdout: 2.1

stdin: Please respond with reported Peak area as % of total area of all glycoforms, 14,533 (system lysozyme) for Oc1cc(O)c2c(c1)O[C@H](c1ccc(O)c(O)c1)[C@@H](O)C2 [(+)-Catechin] .
stdout: 1.2

stdin: Send back lysozyme Peak area as % of total area of all glycoforms, 14,533 of CN1CCCN=C1/C=C/c1cccc(O)c1 [Oxantel] only.
stdout: 1.7

stdin: Enter Peak area as % of total area of all glycoforms, 14,533 (test system lysozyme) for O=c1cc(-c2ccc(O)c(O)c2)oc2cc(O)cc(O)c12 [Luteolin]
stdout: 3.9

stdin: Print lysozyme Peak area as % of total area of all glycoforms, 14,533 for O=c1cc(-c2ccccc2O)oc2cc(O)cc(O)c12 [5,7,2′-Trihydroxyflavone] .
stdout: 2.3

stdin: With lysozyme as the test system, provide measured Peak area as % of total area of all glycoforms, 14,533 for this compound: COc1ccc2c(c1)c(CC(=O)O)c(C)n2C(=O)c1ccc(Cl)cc1 [Indomethacin]
stdout: 1.6

stdin: Name the value of Peak area as % of total area of all glycoforms, 14,533 reported for Oc1c(Br)cc(Br)c2cccnc12 [Broxyquinoline] when tested on lysozyme.
stdout: 3.2

stdin: State Peak area as % of total area of all glycoforms, 14,533 on lysozyme. Entry: Cc1ncc([N+](=O)[O-])n1CC(O)CCl (centres unmarked) [Ornidazole]
stdout: 2.0

stdin: Specify Peak area as % of total area of all glycoforms, 14,533 for O=c1cc(-c2cc(O)c(O)c(O)c2)oc2cc(O)cc(O)c12 [5,7,3′,4′,5′-Pentahydroxyflavone] , system lysozyme.
stdout: 1.7

stdin: Lab note: lysozyme assay, enter Peak area as % of total area of all glycoforms, 14,533 for O=C1OC(CN2CCOCC2)CN1/N=C/c1ccc([N+](=O)[O-])o1 (centres unmarked) [Furaltadone] here
stdout: 1.1

stdin: // output Peak area as % of total area of all glycoforms, 14,533; input O=c1cc(-c2ccc(O)c(O)c2)oc2ccc(O)cc12 [6,3′,4′-Trihydroxyflavone] ; system lysozyme
stdout: 1.6

stdin: Please indicate recorded Peak area as % of total area of all glycoforms, 14,533 of Oc1ccc(CC2NCCc3cc(O)c(O)cc32)cc1O (racemic) [(±)-Tetrahydropapaveroline] measured with lysozyme.
stdout: 0.8

stdin: Report its Peak area as % of total area of all glycoforms, 14,533 with lysozyme as the test system: CS(=O)(=O)Nc1ccc([N+](=O)[O-])cc1Oc1ccccc1 [Nimesulide]
stdout: 2.3

stdin: With lysozyme as the test system, provide measured Peak area as % of total area of all glycoforms, 14,533 for this compound: O=C1C=C(O)C(=O)c2ccccc21 [Lawsone]
stdout: 0.9

stdin: For lysozyme, give Peak area as % of total area of all glycoforms, 14,533 of the listed compound: O=C(O[C@@H]1Cc2c(O)cc(O)cc2O[C@@H]1c1cc(O)c(O)c(O)c1)c1cc(O)c(O)c(O)c1 [(−)-Epigallocatechin gallate]
stdout: 1.7

stdin: Send back lysozyme Peak area as % of total area of all glycoforms, 14,533 of O=c1cc(-c2ccccc2)oc2cc(O)c(O)c(O)c12 [Baicalein] only.
stdout: 0.0

stdin: Specify Peak area as % of total area of all glycoforms, 14,533 for CC(C)NC[C@@H](O)c1ccc(O)c(O)c1 [D-Isoproterenol] , system lysozyme.
stdout: 0.5

stdin: Check lysozyme data and give Peak area as % of total area of all glycoforms, 14,533 for CCC(NC(C)C)C(O)c1ccc(O)c(O)c1 (centres unmarked) [Isoetharine] .
stdout: 0.9

stdin: # return Peak area as % of total area of all glycoforms, 14,533 of N=C(N)NN [Aminoguanidine] (system: lysozyme)
stdout: 1.1

stdin: Report Peak area as % of total area of all glycoforms, 14,533 from lysozyme testing of CN(C)[C@@H]1C(O)=C(C(N)=O)C(=O)[C@@]2(O)C(O)=C3C(=O)c4c(O)ccc(Cl)c4[C@@H](O)[C@H]3C[C@@H]12 [Demeclocycline]
stdout: 0.0

stdin: Look up and report Peak area as % of total area of all glycoforms, 14,533, with lysozyme as system, for CCCOC(=O)c1cc(O)c(O)c(O)c1 [Propyl gallate]
stdout: 0.0

stdin: Report the value of Peak area as % of total area of all glycoforms, 14,533 obtained on lysozyme for N[C@@H](Cc1ccc(O)c(O)c1)C(=O)O [L-DOPA] .
stdout: 0.8

stdin: Please report the measured Peak area as % of total area of all glycoforms, 14,533 for NCCc1ccc(O)c(O)c1 [Dopamine] tested on lysozyme.
stdout: 0.0

stdin: For lysozyme, give the measured Peak area as % of total area of all glycoforms, 14,533 of the entry CNCC(=O)c1ccc(O)c(O)c1 [Adrenalone]
stdout: 1.3

stdin: Param request: Peak area as % of total area of all glycoforms, 14,533 | system lysozyme | item O=C1C[C@@H](c2ccc(O)c(O)c2)Oc2cc(O)cc(O)c21 [Eriodictyol]
stdout: 1.1

stdin: Look up and report Peak area as % of total area of all glycoforms, 14,533, with lysozyme as system, for C[C@](N)(Cc1ccc(O)c(O)c1)C(=O)O [L-α-Methyl-DOPA]
stdout: 0.1

stdin: Under lysozyme, report Peak area as % of total area of all glycoforms, 14,533 for O=S(=O)(O)c1ccc(O)c2ncccc12 [8-Hydroxyquinoline-5-sulfonic acid]
stdout: 1.0

stdin: Report the value of Peak area as % of total area of all glycoforms, 14,533 obtained on lysozyme for Cc1cc(-c2ccc(/N=N/c3c(S(=O)(=O)O)cc4cc(S(=O)(=O)O)cc(N)c4c3O)c(C)c2)ccc1/N=N/c1c(S(=O)(=O)O)cc2cc(S(=O)(=O)O)cc(N)c2c1O [Trypan blue] .
stdout: 1.9
